Molecular target: serotonin transporter (Macaca mulatta, UniProt Q9MYX0)
Construct: The serotonin transporter was assayed in caudate-putamen membranes using conditions similar to those for the dopamine transporter; from tissue; host or cells: caudate-putamen membranes of adult cynomolgus and rhesus monkeys
Sequence (Q9MYX0 whole entry): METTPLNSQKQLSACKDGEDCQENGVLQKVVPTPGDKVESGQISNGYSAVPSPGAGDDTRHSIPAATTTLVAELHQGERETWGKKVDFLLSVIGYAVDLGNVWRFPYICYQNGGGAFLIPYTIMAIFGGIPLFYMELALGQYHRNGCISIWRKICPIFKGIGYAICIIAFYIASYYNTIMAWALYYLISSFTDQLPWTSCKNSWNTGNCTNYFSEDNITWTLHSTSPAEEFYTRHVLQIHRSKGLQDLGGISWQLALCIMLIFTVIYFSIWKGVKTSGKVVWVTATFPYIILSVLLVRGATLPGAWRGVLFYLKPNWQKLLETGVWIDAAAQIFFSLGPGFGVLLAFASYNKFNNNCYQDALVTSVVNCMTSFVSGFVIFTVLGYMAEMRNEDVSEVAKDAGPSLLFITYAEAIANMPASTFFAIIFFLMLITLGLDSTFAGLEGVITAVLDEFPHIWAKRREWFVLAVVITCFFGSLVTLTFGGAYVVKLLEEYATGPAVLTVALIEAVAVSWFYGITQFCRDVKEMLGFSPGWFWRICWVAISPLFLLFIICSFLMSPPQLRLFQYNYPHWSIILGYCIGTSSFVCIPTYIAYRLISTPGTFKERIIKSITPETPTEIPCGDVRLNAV
Assay: Serotonin transporter assay: inhibition of {3H}citalopram binding in caudate-putamen membranes
Design: species or system rhesus or cynomolgus monkey
Settings: IC50 (nM) SERT, Table 2, monkey caudate-putamen
test.readout: IC50

compound | reported.result
COC(=O)[C@@H]1[C@H]2CC[C@@H](C[C@H]1c1ccc(Cl)c(Cl)c1)N2C [Compound 16a] | 27.7 nM
COC(=O)C1C(c2ccc(Cl)c(Cl)c2)CC2CC(O)C1N2C (single isomer, unassigned) [(1R)-18a] | 5300 nM
COC(=O)[C@@H]1[C@H]2C[C@H](O)[C@@H](C[C@H]1c1ccccc1)N2C (relative stereo) [Compound 17d] | > 10000 nM
COC(=O)[C@@H]1[C@H]2C[C@H](O)[C@@H](C[C@H]1c1ccc(F)cc1)N2C (relative stereo) [Compound 17c] | 5820 nM
COC(=O)[C@@H]1[C@H]2[C@H](O)C[C@@H](C[C@H]1c1ccc(Cl)c(Cl)c1)N2C (relative stereo) [Compound 18a] | 1390 nM

* * *

Each entry below lists one item and its recorded SERT/DAT value.
Target: dopamine transporter (Macaca fascicularis, UniProt Q9GJT6)
Construct: The caudate-putamen was dissected from coronal slices and yielded 1.4±0.4 g tissue; Membranes were prepared as described previously; from tissue; host or cells: caudate-putamen membranes of adult cynomolgus and rhesus monkeys
Sequence (Q9GJT6 whole entry): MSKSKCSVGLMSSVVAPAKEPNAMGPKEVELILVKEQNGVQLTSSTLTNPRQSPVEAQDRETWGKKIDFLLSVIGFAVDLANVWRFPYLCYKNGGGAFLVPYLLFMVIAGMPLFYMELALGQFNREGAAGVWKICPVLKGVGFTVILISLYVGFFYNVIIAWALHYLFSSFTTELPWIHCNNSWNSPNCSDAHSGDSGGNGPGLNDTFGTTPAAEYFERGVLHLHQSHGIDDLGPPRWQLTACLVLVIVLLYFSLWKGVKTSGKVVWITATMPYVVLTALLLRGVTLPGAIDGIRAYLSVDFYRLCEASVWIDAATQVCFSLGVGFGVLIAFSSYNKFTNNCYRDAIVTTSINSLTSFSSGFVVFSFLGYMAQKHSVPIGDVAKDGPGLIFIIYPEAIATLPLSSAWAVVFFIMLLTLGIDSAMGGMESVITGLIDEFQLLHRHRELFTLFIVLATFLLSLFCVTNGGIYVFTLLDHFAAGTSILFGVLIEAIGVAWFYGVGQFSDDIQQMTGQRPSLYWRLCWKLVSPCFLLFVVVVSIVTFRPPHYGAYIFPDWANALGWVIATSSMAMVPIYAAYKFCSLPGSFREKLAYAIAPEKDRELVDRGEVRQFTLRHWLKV
Assay: Dopamine transporter assay: inhibition of {3H}WIN 35,428 binding in caudate-putamen membranes
Set-up: species or system rhesus or cynomolgus monkey
Details: Table 2; selectivity ratio of IC50 values

molecule | system.name | modifier | SERT/DAT
COC(=O)C1C(c2ccc3ccccc3c2)CC2CC(O)C1N2C (stereo not shown) [Compound 18b] | dopamine transporter (Macaca fascicularis, UniProt Q9GJT6) | = | 34
COC(=O)[C@@H]1[C@H]2[C@H](O)C[C@@H](C[C@H]1c1ccccc1)N2C (relative stereo) [Compound 18d] | dopamine transporter (Macaca fascicularis, UniProt Q9GJT6) | > | 190
COC(=O)[C@@H]1[C@H]2CC[C@@H](C[C@H]1c1ccc(F)cc1)N2C (relative stereo) [Compound 16c] | dopamine transporter (Macaca fascicularis, UniProt Q9GJT6) | = | 63

* * *

Target: dopamine transporter (Macaca fascicularis)
Construct: The caudate-putamen was dissected from coronal slices and yielded 1.4±0.4 g tissue; Membranes were prepared as described previously; from tissue; host or cells: caudate-putamen membranes of adult cynomolgus and rhesus monkeys
Test: Dopamine transporter assay: inhibition of {3H}WIN 35,428 binding in caudate-putamen membranes
Design: species or system rhesus or cynomolgus monkey
Details: Table 1; {3H}WIN 35,428 binding, monkey caudate-putamen; read-out: IC50 (nM) DAT
test.readout: IC50 (nM)

compound | test.readout | reported.result
CCC(=O)C1C(c2ccc(Cl)c(Cl)c2)CC2CC(O)C1N2C (stereo not shown) [Compound 26] | IC50 | 1.1

* * *

Below is a list of entries, each paired with its recorded SERT/DAT value.
Molecular target: dopamine transporter (Macaca fascicularis, UniProt Q9GJT6)
Construct: The caudate-putamen was dissected from coronal slices and yielded 1.4±0.4 g tissue; Membranes were prepared as described previously; from tissue; host or cells: caudate-putamen membranes of adult cynomolgus and rhesus monkeys
Assay: Dopamine transporter assay: inhibition of {3H}WIN 35,428 binding in caudate-putamen membranes
Design: species or system rhesus or cynomolgus monkey
Settings: Table 2; selectivity ratio of IC50 values
test.readout: SERT/DAT

molecule | test.readout | reported.result
COC(=O)[C@@H]1[C@H]2C[C@H](O)[C@@H](C[C@H]1c1ccccc1)N2C (relative stereo) [Compound 17d] | SERT/DAT | >3
COC(=O)[C@@H]1[C@H]2[C@H](O)C[C@@H](C[C@H]1c1ccc(F)cc1)N2C [Compound 18c] | SERT/DAT | >120
COC(=O)C1C(c2ccc3ccccc3c2)CC2C(O)CC1N2C (stereo not shown) [Compound 17b] | SERT/DAT | 6
COC(=O)[C@@H]1[C@H]2C[C@H](O)[C@@H](C[C@H]1c1ccc(F)cc1)N2C (relative stereo) [Compound 17c] | SERT/DAT | 8
COC(=O)[C@@H]1[C@H]2C[C@H](O)[C@@H](C[C@H]1c1ccc(Cl)c(Cl)c1)N2C (relative stereo) [Compound 17a] | SERT/DAT | 238
COC(=O)[C@@H]1[C@H]2CC[C@@H](C[C@H]1c1ccc(Cl)c(Cl)c1)N2C [Compound 16a] | SERT/DAT | 73
COC(=O)C1C(c2ccc(Cl)c(Cl)c2)CC2CC(O)C1N2C (single isomer, unassigned) [(1R)-18a] | SERT/DAT | 11

* * *

This section presents compounds with their documented log10 of IC50 values.
Target: dopamine transporter (Macaca fascicularis, UniProt Q9GJT6)
Construct: The caudate-putamen was dissected from coronal slices and yielded 1.4±0.4 g tissue; Membranes were prepared as described previously; from tissue; host or cells: caudate-putamen membranes of adult cynomolgus and rhesus monkeys
Assay: Dopamine transporter assay: inhibition of {3H}WIN 35,428 binding in caudate-putamen membranes
Design: species or system rhesus or cynomolgus monkey
Details: IC50 (nM) DAT, Table 2; {3H}WIN 35,428 binding, monkey caudate-putamen
test.readout: log10 of IC50 (log10 of the value in nM)

compound | log10 of IC50
COC(=O)[C@@H]1[C@H]2C[C@H](O)[C@@H](C[C@H]1c1ccccc1)N2C (relative stereo) [Compound 17d] | 3.55
COC(=O)[C@@H]1[C@H]2[C@H](O)C[C@@H](C[C@H]1c1ccc(Cl)c(Cl)c1)N2C (relative stereo) [Compound 18a] | 0.08
COC(=O)[C@@H]1[C@H]2CC[C@@H](C[C@H]1c1ccc(F)cc1)N2C (relative stereo) [Compound 16c] | 1.25
COC(=O)C1C(c2ccc(Cl)c(Cl)c2)CC2CC(O)C1N2C (single isomer, unassigned) [(1S)-18a] | -0.12
COC(=O)[C@@H]1[C@H]2C[C@H](O)[C@@H](C[C@H]1c1ccc(Cl)c(Cl)c1)N2C (relative stereo) [Compound 17a] | 0.78
COC(=O)[C@@H]1[C@H]2CC[C@@H](C[C@H]1c1ccc(Cl)c(Cl)c1)N2C [Compound 16a] | -0.42
COC(=O)[C@@H]1[C@H]2C[C@H](O)[C@@H](C[C@H]1c1ccc(F)cc1)N2C (relative stereo) [Compound 17c] | 2.87
COC(=O)C1C(c2ccc(Cl)c(Cl)c2)CC2CC(O)C1N2C (single isomer, unassigned) [(1R)-18a] | 2.68
COC(=O)[C@@H]1[C@H]2[C@H](O)C[C@@H](C[C@H]1c1ccccc1)N2C (relative stereo) [Compound 18d] | 2.71

* * *

Below, each entry is listed with its recorded IC50.
Biological target: serotonin transporter (Macaca mulatta)
Construct: The serotonin transporter was assayed in caudate-putamen membranes using conditions similar to those for the dopamine transporter; from tissue; host or cells: caudate-putamen membranes of adult cynomolgus and rhesus monkeys
Assay: Serotonin transporter assay: inhibition of {3H}citalopram binding in caudate-putamen membranes
Design: species or system rhesus or cynomolgus monkey
Conditions: IC50 (nM) SERT, Table 2, monkey caudate-putamen
test.readout: IC50

compound | system.name | test.readout | reported.result
COC(=O)C1C(c2ccc(Cl)c(Cl)c2)CC2CC(O)C1N2C (single isomer, unassigned) [(1S)-18a] | serotonin transporter (Macaca mulatta) | IC50 | 1220 nM
COC(=O)[C@@H]1[C@H]2C[C@H](O)[C@@H](C[C@H]1c1ccc(Cl)c(Cl)c1)N2C (relative stereo) [Compound 17a] | serotonin transporter (Macaca mulatta) | IC50 | 1450 nM
COC(=O)[C@@H]1[C@H]2CC[C@@H](C[C@H]1c1ccc(F)cc1)N2C (relative stereo) [Compound 16c] | serotonin transporter (Macaca mulatta) | IC50 | 1130 nM
COC(=O)[C@@H]1[C@H]2[C@H](O)C[C@@H](C[C@H]1c1ccccc1)N2C (relative stereo) [Compound 18d] | serotonin transporter (Macaca mulatta) | IC50 | > 100000 nM
